The reported measurements were obtained from ChEMBL document CHEMBL4619702.

Target: Nonstructural protein 3 (Zika virus, UniProt A0A024AXB9)
Sequence (A0A024AXB9 whole entry): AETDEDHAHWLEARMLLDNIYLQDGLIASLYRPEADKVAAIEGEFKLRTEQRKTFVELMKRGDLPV
Test: Inhibition of Zika virus NS2B-NS3 protease
Where a SMILES comes first, the peptide text is derived from it. The star is where a group is joined. NHBn = c1ccc(CN*)cc1
result.type: pKi
// field semantics: pKi = negative decimal log of concentration (mol/L)

CC(C)[C@H](NC(=O)[C@H](C)N)C(=O)N1CCC[C@H]1C(=O)NCc1ccccc1 (H-Ala-Val-Pro-NHBn) :: 6.85

Test item CCN(CCO)CCCC(C)Nc1ccnc2cc(Cl)ccc12 (centres undefined) [HYDROXYCHLOROQUINE] ; Nonstructural protein 3 (Zika virus, UniProt A0A024AXB9); reported pKi was 4.03

Test item CN[C@@H](C)C(=O)N[C@H](C(=O)N1CC[C@H](C)[C@H]1C(=O)Nc1ccccc1-c1ncccn1)C1CCCCC1 ; Nonstructural protein 3 (Zika virus, UniProt A0A024AXB9); reported pKi was 6.37
